# credit: ChEMBL document CHEMBL1201862

# GI50 annotations
- Test system: ACHN
- assay-comment: NCI tumour cell line growth inhibition, 48 h
Activity calls are given as the source filed them. Cut-off read from the data, not from the text of the source: active = GI50 up to about 1.1 µM and inactive = higher.

Look up and report GI50, with ACHN as system, for Cc1ccc(C(=O)/C=C/c2ccccc2O)c(C)c1
> 100 µM (inactive)

----------
- System: MDA-N
- assay-comment: NCI tumour cell line growth inhibition, 48 h
The source made the active and inactive calls. No stated cut-off is given here; in the data, active = GI50 up to about 1.1 µM and inactive = higher.
Measured GI50 values are reported for all entries that follow.

[
  {
    "molecule": "C/C(=N\\Nc1nc2ccccc2o1)c1cccc[n+]1[O-]",
    "GI50": "60.7 µM (inactive)"
  },
  {
    "molecule": "O=C(O)CO/N=C1/C(=C2/C(=O)Nc3ccccc32)Nc2ccccc21",
    "GI50": "50.9 µM (inactive)"
  }
]

Entry COc1cc(/C=N/NC(=O)c2c(Cl)c(Cl)c(Cl)c(Cl)c2-c2nc3ccccc3[nH]2)ccc1O needs its GI50 filled in; supply it.
24 µM (inactive)

Output measured GI50 for this item: C=CCCCCOC1C=CC(O)C(CO)O1 (stereo not drawn)
> 100 µM (inactive)

Provide only the value of recorded GI50 for N=C(N)SCCC(=O)CCSC(=N)N
> 100 µM (inactive)

Report GI50, nothing else, for this molecule: CCN(CC)CCC1(C(=O)OC)SCCc2ccc(C)cc21 (stereo not drawn)
> 100 µM (inactive)

Please report GI50 for the following molecule: CCOc1ccc(/N=N/c2ccc3cc(/C(C)=N/NC(=O)/C(C#N)=C\c4ccc(N(CCC#N)CCC#N)cc4)c(=O)oc3c2)cc1
> 10 µM (inactive)

Report measured GI50; entry is CO[C@H]1C[C@H](O[C@H]2CC[C@]3(C=O)[C@H]4CC[C@]5(C)[C@@H](C6=CC(=O)OC6)CC[C@]5(O)[C@@H]4CC[C@]3(O)C2)O[C@H](C)[C@H]1O[C@@H]1O[C@H](CO)[C@@H](O)[C@H](O)[C@H]1O
3.94e-05 µM (active)

Indicate the recorded GI50 value for this molecule: CC(NNC(=O)c1ccncc1)c1ccc(Cl)cc1Cl (stereo not drawn)
> 100 µM (inactive)

Respond only with GI50 recorded for C[C@]12CC[C@@H]3c4cc(Br)c(O)c(Br)c4CC[C@H]3[C@@H]1CCC2=O
33.1 µM (inactive)

Supply measured GI50 of C=C(C)CC1=C(C(=S)NCCO[Si](C)(C)C(C)(C)C)C(OCC)(OCC)C1=O in your reply.
19.3 µM (inactive)

Read off the recorded GI50 for CCCCCCCCCCC(O)C1CCC(C(O)CCC(O)C2CCC(CCCCCCC[C@H](O)CC3=C[C@@H](C)OC3=O)O2)O1 (stereo partly drawn)
> 10 µM (inactive)

Answer with reported GI50 of O=c1cc2oc3ccc4ccccc4c3cc-2c(=O)[nH]1
11.3 µM (inactive)

Report GI50 for Oc1nncc2[nH]c(-c3ccccc3)cc12
38.9 µM (inactive)

Output GI50 of Cc1ccc(N(C)S(=O)(=O)c2ccc([N+](=O)[O-])cc2)cc1
> 100 µM (inactive)

Supply measured GI50 of CC12CCC(=O)[C@@]1(C)CCCC2O (stereo partly drawn) in your reply.
> 100 µM (inactive)

Kindly indicate its recorded GI50. Item: CCCCCCCCCCCCCCCCOCC(CC(F)(F)P(=O)(O)O)OC(C)=O (stereo not drawn)
> 50 µM (inactive)

Supply recorded GI50 for CC1=NN(c2nc(N)nc(/C(C#N)=C/c3ccccc3O)n2)C(C)(C)C1 here.
15.3 µM (inactive)

Give the value of GI50 reported for the following: COc1ccc2c(c1)c1c(n2CCN(C)C)-c2ccccc2CC1
16 µM (inactive)

Item N=C1/C(=C/c2ccccc2)C(=O)N=C2SC=NN12 : provide GI50
> 100 µM (inactive)

# return recorded GI50 for entry CN1CCC(OC(=O)Oc2ccccc2)(c2ccccc2)CC1
17.6 µM (inactive)

Answer with the recorded GI50 for the molecule listed here: CN(C)CCCNC(=O)CCNC(=O)c1cc(NC(=O)c2cc(NC(=O)c3cc(NC(=O)CCCNC(=O)c4cc(NC(=O)c5cc(NC(=O)c6nccn6C)cn5C)cn4C)cn3C)cn2C)cn1C
> 100 µM (inactive)
